# Test system: OVCAR-3 ovarian
# procedure details: NCI tumour cell line growth inhibition, 48 h
endpoint label: TGI

Examples with their reported TGI follow.
INSERT INTO measurements (compound, endpoint_label, result) VALUES
  ('CC12N=NN(c3ccc([N+](=O)[O-])cc3)C1(O)c1ccccc1C2=O (stereo unspecified)', 'TGI', '> 100 µM'),
  ('CC[N+](C)(CC)CCC(O)(c1ccccc1)c1ccccc1', 'TGI', '> 100 µM'),
  ('CCOC(=O)c1c(N2CCCC2)ncn(-c2ccccc2)c1=S', 'TGI', '> 100 µM'),
  ('COc1ccc(C2SCC(=O)N2NC(=O)C(O)c2ccccc2)cc1OC (stereo unspecified)', 'TGI', '> 100 µM');

[in] # return recorded TGI for entry O=C(c1ccccc1)C1CCCCN1C(=O)c1ccccc1 (stereo unspecified)
[out] > 100 µM

[in] # return recorded TGI for entry `O=Cc1ccccc1OCCOc1cc(OCCOc2ccccc2C=O)c(OCCOc2ccccc2C=O)cc1OCCOc1ccccc1C=O`
[out] > 100 µM

[in] # return recorded TGI for entry `CO/C(=N\N=C\c1cccc(Cl)c1)c1ccncc1`
[out] > 10 µM

[in] # return recorded TGI for entry `O=[N+]([O-])c1ccc2nc(-c3ccccn3)c(-c3ccccn3)nc2c1`
[out] > 100 µM

[in] # return recorded TGI for entry `CN(C)c1nc(N(C)C)nc(N(C)C23CC4CC(CC(C4)C2)C3)n1`
[out] > 100 µM

[in] # return recorded TGI for entry `N#Cc1nc(CCCCCN2C(=O)c3ccccc3C2=O)oc1N`
[out] > 100 µM

[in] # return recorded TGI for entry `CCN(CC)CCNc1ccc([N+](=O)[O-])c2sc3ccccc3c(=O)c12`
[out] 2.69 µM

[in] # return recorded TGI for entry `Nc1cccc2c1C(=O)c1cccc(N)c1C2=O`
[out] > 100 µM

[in] # return recorded TGI for entry O=C(Nc1ccc(Cl)cc1Cl)C(=O)C(C(=O)c1ccc2ccccc2c1)C1OC(=O)c2ccccc21 (stereo unspecified)
[out] 26.1 µM

[in] # return recorded TGI for entry `Cc1ccc(C(C)(C)C[P+](C)(c2ccccc2)c2ccccc2)cc1`
[out] 22.2 µM

[in] # return recorded TGI for entry `COc1cc(CCN)c2c(c1OC)SSSSS2`
[out] 0.538 µM

[in] # return recorded TGI for entry `COc1cc(/C=C\c2ccc(C)cc2)cc(OC)c1OC`
[out] 0.00442 µM

---

# System: SK-MEL-28 melanoma
# procedure details: NCI tumour cell line growth inhibition, 48 h
Overview of recorded TGI for various compounds

INSERT INTO results (compound, endpoint_label, result) VALUES
  ('CCOP(=O)(OCC)C(Nc1cccc(F)c1)c1ccccc1 (centres undefined)', 'TGI', '> 100 µM'),
  ('CCOC(=O)C1=C(C(=O)c2ccc(C)cc2)C(c2cccc([N+](=O)[O-])c2)C(C(=O)c2ccc(C)cc2)=C(C(=O)OCC)N1', 'TGI', '34.2 µM');

[in] Provide TGI, system SK-MEL-28 melanoma, entry `CCOC(=O)c1c(N2CCCC2)ncn(-c2ccccc2)c1=S`
[out] > 100 µM

[in] Provide TGI, system SK-MEL-28 melanoma, entry `O=C([CH-]C(=O)c1ccccc1)c1ccccc1.O=C([CH-]C(=O)c1ccccc1)c1ccccc1.O=C([CH-]C(=O)c1ccccc1)c1ccccc1.[Nd+3].[OH3+]`
[out] 30.4 µM

[in] Provide TGI, system SK-MEL-28 melanoma, entry `O=C(CSCC(=O)N/N=C/c1cccs1)N/N=C/c1cccs1`
[out] > 100 µM
